Test summary: Rat PK test
Type: in vivo
Study conditions: plasma, male SD rats, oral 1 mg/kg, cassette dosing, read-out: Tmax (time to reach maximum plasma concentration)
Observed property: Tmax (min)
Write the answer as a number in min, unit excluded.

Sample answers from the record:
input: For the molecule "Cn1cc(-c2ccc(Cc3cc(C(=O)N[C@H]4CCOC[C@@H]4O)c(F)c4c3OCC4)cn2)cn1" , what Tmax is on record?
output: 72

input: Which Tmax value is on record for "COCCNC(=O)c1ccc(Cc2cc(C(=O)N[C@H]3CCOC[C@@H]3O)c(F)c3c2OCC3)cc1F" ?
output: 60

input: Consider the molecule shown here: "Cn1cnc(-c2ccc(Cc3cc(C(=O)N[C@H]4CCOC[C@@H]4O)c(F)c4c3OCC4)cc2)c1" What is its recorded Tmax?
output: 30

More entries:
input: What value of Tmax has been recorded for this entry: "COCCCNC(=O)c1ccc(Cc2cc(C(=O)N[C@H]3CCOC[C@@H]3O)c(OC)c3c2CCC3)cc1F"
output: 48

input: What does the record list as Tmax for "CCOCCNC(=O)c1ccc(Cc2cc(C(=O)N[C@H]3CCOC[C@@H]3O)c(F)c3c2OCC3)cc1F" ?
output: 42

input: # query: Tmax of entry "CNC(=O)c1ccc(Cc2cc(C(=O)N[C@H]3CCOC[C@@H]3O)c(OC)c3c2OCC3)cc1F"
output: 42

====

As shown below, each of these molecules has a reported MRT value.
Test summary: Rat PK test
Assay type: in vivo
Study conditions: plasma, male SD rats, intravenous 0.1 mg/kg, cassette dosing, read-out: MRT iv (mean residence time)
State just the number; it will be interpreted in min.

input: Data request, read-out MRT, for "COCCNC(=O)c1ccc(Cc2cc(C(=O)N[C@H]3CCOC[C@@H]3O)c(F)c3c2OCC3)cc1F"
output: 72

Continuing:
input: So what's the measured MRT for this one? "CCOCCNC(=O)c1ccc(Cc2cc(C(=O)N[C@H]3CCOC[C@@H]3O)c(F)c3c2OCC3)cc1F"
output: 36

input: Given the molecule "Cn1cnc(-c2ccc(Cc3cc(C(=O)N[C@H]4CCOC[C@@H]4O)c(F)c4c3OCC4)cc2)c1" , what is its reported MRT?
output: 36

input: Field request: MRT | item: "CNC(=O)c1ccc(Cc2cc(C(=O)N[C@H]3CCOC[C@@H]3O)c(OC)c3c2OCC3)cc1F"
output: 54

input: Name the reported MRT value associated with the molecule "Cn1cc(-c2ccc(Cc3cc(C(=O)N[C@H]4CCOC[C@@H]4O)c(F)c4c3OCC4)cn2)cn1"
output: 84

input: GET /values?readout=MRT&item= "COCCCNC(=O)c1ccc(Cc2cc(C(=O)N[C@H]3CCOC[C@@H]3O)c(OC)c3c2CCC3)cc1F"
output: 36

====

Tested on: UniProtKB P11229
Sequence (P11229 whole entry): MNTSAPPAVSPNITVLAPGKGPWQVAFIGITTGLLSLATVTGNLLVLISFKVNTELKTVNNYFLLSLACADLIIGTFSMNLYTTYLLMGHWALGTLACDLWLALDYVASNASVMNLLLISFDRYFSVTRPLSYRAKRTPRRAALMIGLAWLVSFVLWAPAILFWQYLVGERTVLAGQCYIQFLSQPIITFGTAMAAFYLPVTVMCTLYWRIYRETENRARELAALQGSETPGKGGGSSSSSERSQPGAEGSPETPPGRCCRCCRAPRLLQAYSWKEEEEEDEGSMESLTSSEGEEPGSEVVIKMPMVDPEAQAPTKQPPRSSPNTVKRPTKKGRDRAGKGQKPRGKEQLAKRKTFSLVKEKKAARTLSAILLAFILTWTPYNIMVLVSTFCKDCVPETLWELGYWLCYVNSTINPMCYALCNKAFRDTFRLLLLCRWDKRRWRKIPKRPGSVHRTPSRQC
Test summary: Measurement of M1 receptor positive allosteric modulator (M1PAM) activity
Study conditions: PAM activity in presence of acetylcholine at EC20 concentration; CHO-K1 cells stably expressing human M1 receptor; IP1 time-resolved fluorescence
Reported EC50 by item:
Hi! Could you send only the number? It should be in µM, unit omitted.

A selection of reference data follows.
input: Can you look up the measured EC50 of "CNC(=O)c1ccc(Cc2cc(C(=O)N[C@H]3CCOC[C@@H]3O)c(OC)c3c2OCC3)cc1F" for me?
output: 0.018

input: Name the reported EC50 value associated with the molecule "COc1c(C(=O)N[C@H]2CCOC[C@@H]2O)cc(Cc2ccc(C(=O)NCCCS(C)(=O)=O)c(F)c2)c2c1CCC2"
output: 0.012

***
input: Name the reported EC50 value associated with the molecule "Cn1cc(-c2ccc(Cc3cc(C(=O)N[C@H]4CCOC[C@@H]4O)c(F)c4c3OCC4)cc2)cn1"
output: 0.0049

input: Tell me the measured EC50 of "CNC(=O)c1ccc(Cc2cc(C(=O)N[C@H]3CCOC[C@@H]3O)c(F)c3c2OCC3)cc1F" , please.
output: 0.011

input: For the molecule "COc1c(C(=O)N[C@H]2CCOC[C@@H]2O)cc(Cc2ccc(-c3cn(C)nn3)cc2)c2c1CCO2" , what EC50 is on record?
output: 0.006

input: // lookup EC50 for "O=C(N[C@H]1CCCC[C@@H]1O)c1cc(Cc2ccc(-n3cccn3)cc2)c2c(c1F)CCO2"
output: 0.017

input: Which measured EC50 value corresponds to "COCCNC(=O)c1ccc(Cc2cc(C(=O)N[C@H]3CCOC[C@@H]3O)c(OC)c3c2CCC3)cc1F" ?
output: 0.0094

input: Which EC50 value is on record for "O=C(N[C@H]1CCOC[C@@H]1O)c1cc(Cc2ccc(-n3cccn3)cc2)c2c(c1F)CCO2" ?
output: 0.0076

input: Consider the molecule shown here: "COCCNC(=O)c1ccc(Cc2cc(C(=O)N[C@H]3CCOC[C@@H]3O)c(OC)c3c2OCC3)cc1F" What is its recorded EC50?
output: 0.024

input: Fill in: EC50 of "CCOCCNC(=O)c1ccc(Cc2cc(C(=O)N[C@H]3CCOC[C@@H]3O)c(F)c3c2OCC3)cc1F" is ___
output: 0.02

input: Requested read-out: EC50. Entry: "COc1c(C(=O)N[C@H]2CCOC[C@@H]2O)cc(Cc2ccc(-c3cnn(C)c3)nc2)c2c1CCC2"
output: 0.0055

input: Query (molecule): "COCCNC(=O)c1ccc(Cc2cc(C(=O)N[C@H]3CCOC[C@@H]3O)c(F)c3c2OCC3)cc1F" ; field requested: EC50
output: 0.0042

input: What value of EC50 has been reported for the following molecule? "COc1c(C(=O)N[C@H]2CCOC[C@@H]2O)cc(Cc2ccc(C(=O)NC[C@H]3CCCO3)c(F)c2)c2c1CCC2"
output: 0.032

input: What value of measured EC50 is listed for "COc1c(C(=O)N[C@H]2CCOC[C@@H]2O)cc(Cc2ccc(C(=O)NC[C@H]3CCCO3)c(F)c2)c2c1CCO2" ?
output: 0.096

input: Which EC50 reading was recorded for the molecule "COCCCNC(=O)c1ccc(Cc2cc(C(=O)N[C@H]3CCOC[C@@H]3O)c(OC)c3c2CCC3)cc1F" ?
output: 0.017

FYI, the data here is from patent US12162864B2.
